The origin of these recorded values is ChEMBL document CHEMBL4765445.

Molecular target: Vascular endothelial growth factor receptor 2 (Homo sapiens)
Sequence (P35968 whole entry, the tested form may be a part): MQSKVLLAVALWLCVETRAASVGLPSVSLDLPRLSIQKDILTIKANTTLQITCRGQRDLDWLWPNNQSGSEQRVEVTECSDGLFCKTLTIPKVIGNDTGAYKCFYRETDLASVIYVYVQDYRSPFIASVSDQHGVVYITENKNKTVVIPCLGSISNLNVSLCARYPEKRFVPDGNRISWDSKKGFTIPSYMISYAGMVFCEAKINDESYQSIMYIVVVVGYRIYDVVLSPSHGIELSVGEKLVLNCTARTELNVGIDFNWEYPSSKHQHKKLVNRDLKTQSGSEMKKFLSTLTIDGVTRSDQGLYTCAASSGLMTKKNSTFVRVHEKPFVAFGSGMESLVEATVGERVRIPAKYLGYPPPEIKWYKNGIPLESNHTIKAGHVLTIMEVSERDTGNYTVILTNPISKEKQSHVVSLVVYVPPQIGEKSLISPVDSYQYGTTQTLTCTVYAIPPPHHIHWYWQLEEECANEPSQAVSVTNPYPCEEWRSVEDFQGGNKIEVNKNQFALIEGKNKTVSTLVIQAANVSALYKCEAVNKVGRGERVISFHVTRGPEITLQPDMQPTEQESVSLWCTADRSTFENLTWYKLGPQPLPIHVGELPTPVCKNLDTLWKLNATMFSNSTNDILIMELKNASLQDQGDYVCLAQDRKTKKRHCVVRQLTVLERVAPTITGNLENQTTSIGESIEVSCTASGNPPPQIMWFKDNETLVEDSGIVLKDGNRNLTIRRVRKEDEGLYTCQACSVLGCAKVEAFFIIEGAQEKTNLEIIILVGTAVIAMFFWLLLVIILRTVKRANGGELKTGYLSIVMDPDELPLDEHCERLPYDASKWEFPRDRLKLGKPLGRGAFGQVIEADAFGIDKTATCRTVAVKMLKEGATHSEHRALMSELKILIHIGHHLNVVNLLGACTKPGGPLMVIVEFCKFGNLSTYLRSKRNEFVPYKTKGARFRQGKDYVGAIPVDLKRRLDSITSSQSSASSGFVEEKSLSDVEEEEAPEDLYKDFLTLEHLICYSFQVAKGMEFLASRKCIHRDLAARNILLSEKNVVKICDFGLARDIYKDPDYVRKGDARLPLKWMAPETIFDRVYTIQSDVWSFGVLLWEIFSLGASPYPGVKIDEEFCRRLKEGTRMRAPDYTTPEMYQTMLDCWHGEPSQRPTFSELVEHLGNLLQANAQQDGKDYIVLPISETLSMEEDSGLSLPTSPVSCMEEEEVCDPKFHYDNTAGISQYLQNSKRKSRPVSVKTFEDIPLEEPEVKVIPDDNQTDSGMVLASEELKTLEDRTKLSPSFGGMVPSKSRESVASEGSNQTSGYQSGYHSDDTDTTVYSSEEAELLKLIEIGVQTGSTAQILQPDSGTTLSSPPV
Experiment: Inhibition of recombinant VEGFR2 kinase domain (unknown origin)
IC50 under 90 nM gets 1, anything at or over 90 nM gets 0.

Answered examples (5):
{"columns": ["MOLECULE_SMILES", "CATEGORY_LABEL"],
 "data": [
  ["COc1cc2c(Oc3ccc(Nc4nccc5[nH]cc(-c6ccc(F)cc6)c(=O)c45)cc3F)ncnc2cc1OCCCO", 1],
  ["COc1cc2c(Oc3ccc(Nc4nccc5[nH]cc(-c6ccc(F)cc6)c(=O)c45)cc3F)ncnc2cc1OCCCN1CCOCC1", 0],
  ["COc1cc2ncnc(Oc3ccc(Nc4nccc5[nH]cc(-c6ccc(F)cc6)c(=O)c45)cc3F)c2cc1OCCCN1CCCCC1", 0],
  ["COCCOc1cc2ncnc(Oc3ccc(Nc4nccc5[nH]cc(-c6ccc(F)cc6)c(=O)c45)cc3F)c2cc1OCCOC", 1],
  ["COc1cc2ncnc(Oc3ccc(Nc4nccc5[nH]cc(-c6ccc(F)cc6)c(=O)c45)cc3)c2cc1OC", 0]
]}

-- ask hey, is IC50 for COc1cc2ncnc(Oc3ccc(Nc4nccc5[nH]cc(-c6ccc(F)cc6)c(=O)c45)cc3F)c2cc1OC lower than 90 nM or not?
-- reply 0

-- ask hey, is IC50 for COc1cc2ncnc(Oc3ccc(Nc4nccc5[nH]cc(-c6ccc(F)cc6)c(=O)c45)cc3F)c2cc1OCCCN1CCCC1 lower than 90 nM or not?
-- reply 0
